- Test description: qHTS assay for small molecule activators of the nuclear factor-kappa B (NF-kB) signaling pathway (AID 651749); note: % of control where 0% means no effect
- Measurement context: NF-kB-bla ME-180 cells, beta-lactamase FRET ratio, 16 h; hits give high values
Results filed as inconclusive are left out.
Measured quantity: activation (%)
Your answer should be a plain number; it is taken to be in %.

Example cases with answers are listed next.
q: # activation lookup, item CCCCCCCCCCCCc1ccccc1
a: 1.6

q: # activation lookup, item CCCCCCCC/C=C\CCCCCCCCO
a: -1.39

q: # activation lookup, item O=c1n(CCO)c(=O)n(CCO)c(=O)n1CCO
a: 4.3

q: # activation lookup, item CCCCCCCCCCCCCC(=O)OC
a: 0.501

q: # activation lookup, item CCCCCCC(C)(C)S
a: -2.27

Others:
q: # activation lookup, item C[Si]1(C)O[Si](C)(C)O[Si](C)(C)O[Si](C)(C)O1
a: 0.122

q: # activation lookup, item CCCCCc1ccc(N)cc1
a: 1.37

q: # activation lookup, item CCCCC(CC)C(=O)OCCOCCOCCOC(=O)C(CC)CCCC (centres undefined)
a: -6.56

q: # activation lookup, item CN(C)CCOCCN(C)C
a: 0.657

q: # activation lookup, item CCCCCCCCCCCCCCC(=O)OC
a: 0.418

q: # activation lookup, item C1=C/CC/C=C/CC/C=C/CC/1
a: 0.104

q: # activation lookup, item CC(C)Cc1c(C(=O)O)c(C(F)F)nc(C(F)(F)F)c1C1=NCCS1
a: 1.24

q: # activation lookup, item Cc1ccc(C(C)(C)C)c(O)c1
a: 0.363

q: # activation lookup, item CCCCCCCC/C=C\CCCCCCCCCCCCC
a: -1.6

q: # activation lookup, item Cc1ccc(N)c(S(=O)(=O)O)c1
a: 0.0519

---

- Tested on: CP237
- Test description: qHTS profiling for inhibitors of Plasmodium falciparum proliferation (AID 504749); note: nearly all actives have a fitted effect of over 60% in size
- Measurement context: P. falciparum in erythrocytes, SYBR Green DNA, 72 h; series mostly up to 28.7 µM
Records with an inconclusive call do not appear. The source made the active and inactive calls. Calls come from the whole dose curve; as a rule, active = well fitted inhibition curve with a large enough effect; inconclusive = small, poorly fitted or top-dose-only effect; inactive = flat fitted curve, though single readings scatter. Bridge positions count the residues as written; N and C are the ends. Square brackets hold non-standard residues; d marks the D form. Peptide text beside a SMILES is read from it. * marks the point of attachment. ξ: configuration not given here. ξDab(CH2SO3H) = NC(CCNCS(=O)(=O)O)C(=O)O; Heptanoyl(6-Me) = CC(C)CCCCC(=O)*; Orn = NCCC[CH](N)C(=O)O; Dab = NCC[CH](N)C(=O)O
API: response.call in active, inactive

q: What call does the record list for CC(=O)OCC1=C(C(=O)O)N2C(=O)C(NC(=O)Cc3ccccc3)C2SC1 (stereo not given) ?
a: inactive

q: What call does the record list for CCC1NC(=O)C(NC(=O)c2ncccc2O)C(C)OC(=O)C(c2ccccc2)NC(=O)C2CC(=O)CCN2C(=O)C(Cc2ccccc2)N(C)C(=O)C2CCCN2C1=O (stereo not given) ?
a: inactive

q: What call does the record list for CC(C)CC(NC(=O)C(COC(C)(C)C)NC(=O)C(Cc1ccc(O)cc1)NC(=O)C(CO)NC(=O)C(Cc1c[nH]c2ccccc12)NC(=O)C(Cc1cnc[nH]1)NC(=O)C1CCC(=O)N1)C(=O)NC(CCCN=C(N)N)C(=O)N1CCCC1C(=O)NNC(N)=O (stereo not given) ?
a: inactive

q: What call does the record list for O=C1/C(=C\c2cccs2)CCC/C1=C/c1cccs1 ?
a: inactive

Others:
q: What call does the record list for CC(C)C[C@H](NC(=O)[C@@H](Cc1c[nH]c2ccccc12)NC(=O)[C@@H](Cc1ccc(O)cc1)NC(=O)[C@@H](CO)NC(=O)[C@@H](Cc1c[nH]c2ccccc12)NC(=O)C(Cc1cnc[nH]1)NC(=O)C1CCC(=O)N1)C(=O)N[C@@H](CCCN=C(N)N)C(=O)N1CCC[C@@H]1C(=O)NCC(N)=O (stereo not given in full) ?
a: inactive

q: What call does the record list for O=C(O)c1ccccc1-c1c2cc(Br)c(=O)c(Br)c-2oc2c(Br)c(O)c(Br)cc12 ?
a: inactive

q: What call does the record list for CC(C)CC1NC(=O)C(CCCN)NC(=O)C(C(C)C)NC(=O)C2CCCN2C(=O)C(Cc2ccccc2)NC(=O)C(CC(C)C)NC(=O)C(CCCN)NC(=O)C(C(C)C)NC(=O)C2CCCN2C(=O)C(Cc2ccccc2)NC1=O (stereo not given) (cyclo(FPV[Orn]LFPV[Orn]L); configuration not given here) ?
a: active

q: What call does the record list for C=CC1=C(C(=O)O)N2C(=O)[C@@H](NC(=O)C(N=O)c3csc(N)n3)[C@H]2SC1 (stereo not given in full) ?
a: inactive

q: What call does the record list for CC(=O)OCC(=O)[C@@]1(O)CCC2C3CCC4=CC(=O)CC[C@]4(C)C3=CC[C@@]21C (stereo not given in full) ?
a: inactive

q: What call does the record list for CCC(C)C1NC(=O)C(CCNCS(=O)(=O)O)NC(=O)C(NC(=O)C(CCNCS(=O)(=O)O)NC(=O)C(NC(=O)C(CCNCS(=O)(=O)O)NC(=O)CCCCC(C)C)C(C)O)CCNC(=O)C(C(C)O)NC(=O)C(CCNCS(=O)(=O)O)NC(=O)C(CCNCS(=O)(=O)O)NC(=O)C(C(C)CC)NC1=O (stereo not given) ({Heptanoyl(6-Me)}-[ξDab(CH2SO3H)]T[ξDab(CH2SO3H)][Dab][ξDab(CH2SO3H)]II[ξDab(CH2SO3H)][ξDab(CH2SO3H)]T; lactam 4-C; configuration not given here) ?
a: inactive

These measurements were taken from PubChem BioAssay (NCATS).
